# measuredTarget: HLA-B*0702 (human)
# protocolDetails: competition binding assay, purified HLA, labelled probe peptide
Entries and their IC50
Phrase the answer as number then unit, nothing more needed.

APLGGAARA (modifications not checked) = 115 nM
IPLVGAPL (modifications not checked) = 25 nM

Let us move to another entry and its IC50.
Ask: Recorded IC50 of TPGERPSGM (modifications not checked) , please.
Result: 199 nM
